- TARGET OF ASSAY: subtype of muscarinic receptors (M1-site) (Rattus norvegicus)
- Sequence (P08482 whole entry): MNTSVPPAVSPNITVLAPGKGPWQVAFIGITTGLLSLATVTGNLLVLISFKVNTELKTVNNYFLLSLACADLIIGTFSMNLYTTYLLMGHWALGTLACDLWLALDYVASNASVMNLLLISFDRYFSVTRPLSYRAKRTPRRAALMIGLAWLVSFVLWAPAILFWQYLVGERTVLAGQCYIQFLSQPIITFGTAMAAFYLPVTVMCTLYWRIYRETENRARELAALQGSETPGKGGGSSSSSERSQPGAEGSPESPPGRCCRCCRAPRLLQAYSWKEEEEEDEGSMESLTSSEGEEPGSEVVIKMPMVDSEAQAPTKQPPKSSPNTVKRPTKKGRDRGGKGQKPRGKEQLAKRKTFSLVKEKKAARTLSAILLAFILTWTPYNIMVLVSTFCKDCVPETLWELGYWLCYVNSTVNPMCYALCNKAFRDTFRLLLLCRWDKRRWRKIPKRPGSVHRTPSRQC
- TEST: inhibition of 3H-PRZ (pirenzepine, [N-methyl-3H]) binding to rat cerebral cortex membranes
- RUN PARAMETERS: 1.0 nM 3H-Pirenzepine, pH 7.4, 60 min, 20° C, read-out: IC50, 3H-Pz
pIC50: −log10 of the molar value.
Would you please tag the item t when its pIC50 is 8 or above, and f when it is below?

[[record]]
molecule = "CCSc1nsnc1C1=CCC[N+](C)(CC)C1 (stereo not shown)"
class_assignment = "f"

[[record]]
molecule = "CCCCCSc1nsnc1[C@@H]1C[N@@+]2(C)CCC[C@@H]1C2 (relative stereo)"
class_assignment = "f"

[[record]]
molecule = "CCSc1nsnc1C1=CCC[N+](C)(C)C1"
class_assignment = "f"

[[record]]
molecule = "CCOc1nsnc1C1=CCC[N+](C)(C)C1"
class_assignment = "t"

[[record]]
molecule = "CCOc1nsnc1C1=CCC[N+](C)(CC)C1 (stereo not shown)"
class_assignment = "f"

[[record]]
molecule = "CCCCCSc1nsnc1[C@H]1C[N@@+]2(C)CCC[C@@H]1C2 (relative stereo)"
class_assignment = "t"

[[record]]
molecule = "CCCCSc1nsnc1C1C[N+]2(C)CCC1CC2 (stereo not shown)"
class_assignment = "t"


###

- TARGET OF ASSAY: muscarinic acetylcholine receptors
- TEST: inhibition of specific binding of 3H-Oxotremorine-M (3H-Oxo), rat cortex homogenate
- RUN PARAMETERS: 1.0 nM 3H-Oxotremorine, pH 7.4, 30 min, 25° C
pIC50: −log10 of the molar value.
Measured pIC50 values are reported for all entries that follow.
OBSERVED PROPERTY: pIC50

[[record]]
molecule = "CCCCCCSc1nsnc1C1=CCC[N+](C)(C)C1 [Compound 1]"
observed_value = 8.47

[[record]]
molecule = "C[N+]12CCCC(C1)C(c1nsnc1SCC#Cc1ccccc1)C2 (single isomer, unassigned) [Compound 13]"
observed_value = 7.89

[[record]]
molecule = "CCCCCSc1nsnc1[C@@H]1C[N@@+]2(C)CCC[C@@H]1C2 (relative stereo) [Compound 7]"
observed_value = 8.31

[[record]]
molecule = "CCCCCSc1nsnc1[C@H]1C[N@@+]2(C)CCC[C@@H]1C2 (relative stereo) [Compound 6]"
observed_value = 8.32

[[record]]
molecule = "C[N+]12CCCC(C1)C(c1nsnc1OCC#Cc1cccs1)C2 (single isomer, unassigned) [Compound 12]"
observed_value = 7.20

[[record]]
molecule = "C[N+]12CCCC(C1)C(c1nsnc1OCC#Cc1ccsc1)C2 (single isomer, unassigned) [Compound 11]"
observed_value = 7.46

[[record]]
molecule = "CCOc1nsnc1C1=CCC[N+](C)(C)C1 [Compound 3]"
observed_value = 9.23

[[record]]
molecule = "CCSc1nsnc1C1=CCC[N+](C)(CC)C1 (stereo not shown) [Compound 8]"
observed_value = 8.46

[[record]]
molecule = "CCOc1nsnc1C1=CCC[N+](C)(CC)C1 (stereo not shown) [Compound 10]"
observed_value = 7.81

[[record]]
molecule = "CCSc1nsnc1C1=CCC[N+](C)(C)C1 [Compound 9]"
observed_value = 8.80

[[record]]
molecule = "CCCCSc1nsnc1C1C[N+]2(C)CCC1CC2 (stereo not shown) [Compound 4]"
observed_value = 8.82

[[record]]
molecule = "CCCCSc1nsnc1[C@H]1C[N@@+]2(C)CCC[C@@H]1C2 (relative stereo) [Compound 5]"
observed_value = 8.48

[[record]]
molecule = "CCCCCCOc1nsnc1C1=CCC[N+](C)(C)C1 [Compound 2]"
observed_value = 8.48

